These measurements were taken from the supplement of paper PMC9112550.

# System: Escherichia coli TOP10
# assay_text: shrunken log2 fold change of peptide-encoding DNA abundance (4.5 h post-induction vs induction); higher = less antimicrobial activity (less host growth inhibition)
# condition_notes: time post-induction: 4.5 h; library: site-saturation at positions 5, 18, 19, 20
Param threshold (-0.04) applies to shrunken log2 fold change; output TRUE when value >= threshold, FALSE when value < threshold.

[ask] State whether the measured shrunken log2 fold change reaches -0.04, counting equality as reaching it, for RRIRCRPPRLPRPRPRPCNPPRP
[reply] FALSE

[ask] Textbook exercise: given the entry RRIRGRPPRLPRPRPRPDIVPRP , state whether its shrunken log2 fold change is greater than or equal to -0.04.
[reply] TRUE

[ask] Determine whether measured shrunken log2 fold change meets or exceeds -0.04 for RRIRNRPPRLPRPRPRPMMGPRP
[reply] TRUE

[ask] Hello, I need to know if RRIRWRPPRLPRPRPRPLECPRP has measured shrunken log2 fold change not below -0.04. Thanks!
[reply] TRUE

[ask] Could you tell me if the measured shrunken log2 fold change of RRIRGRPPRLPRPRPRPAIQPRP reaches -0.04 or more?
[reply] TRUE

[ask] Assess whether reported shrunken log2 fold change for RRIRHRPPRLPRPRPRPMLFPRP sits at -0.04 or higher.
[reply] FALSE

[ask] Decide: is the reported value of shrunken log2 fold change for RRIRMRPPRLPRPRPRPSLCPRP equal to or greater than -0.04?
[reply] TRUE

[ask] Determine whether this sequence has shrunken log2 fold change no lower than -0.04: RRIRDRPPRLPRPRPRPFNAPRP
[reply] FALSE

[ask] Textbook exercise: given the entry RRIRLRPPRLPRPRPRPIGAPRP , state whether its shrunken log2 fold change is greater than or equal to -0.04.
[reply] FALSE

[ask] // inclusive: shrunken log2 fold change at least -0.04? input: RRIRQRPPRLPRPRPRPGVNPRP
[reply] FALSE

[ask] Is it the case that RRIRGRPPRLPRPRPRPLHNPRP has shrunken log2 fold change reaching or exceeding -0.04?
[reply] TRUE

[ask] Form field: shrunken log2 fold change at least -0.04? Entry: RRIRERPPRLPRPRPRPYQSPRP
[reply] TRUE

[ask] Please indicate if the recorded shrunken log2 fold change for RRIRSRPPRLPRPRPRPVYIPRP meets or exceeds -0.04.
[reply] FALSE

[ask] Hi team, for RRIRCRPPRLPRPRPRPDHVPRP , is the recorded shrunken log2 fold change at or above -0.04?
[reply] TRUE

[ask] Reported shrunken log2 fold change reaches at least -0.04 for RRIRFRPPRLPRPRPRPLQAPRP ?
[reply] TRUE

###

# Test system: Escherichia coli TOP10;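 also: peptides expressed intracellularly from a pBAD plasmid library in pooled LB shake-flask culture, induced with 0.3% L-arabinose, DNA abundance read by NGS, three biological replicates, DESeq2 with apeglm shrinkage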
# assay_text: shrunken log2 fold change of peptide-encoding DNA abundance (4.5 h post-induction vs induction); higher = less antimicrobial activity (less host growth inhibition)
# condition_notes: time post-induction: 4.5 h; library: site-saturation at positions 5, 18, 19, 20
Task for the reader: assign each of the following sequences its reported shrunken log2 fold change.
// print number alone

Item: RRIRRRPPRLPRPRPRPYIVPRP | shrunken log2 fold change: -0.263

# shrunken log2 fold change (sequence: RRIRGRPPRLPRPRPRPTIMPRP ) is 0.365

// sample RRIRCRPPRLPRPRPRPGASPRP , its shrunken log2 fold change was 0.519

// sample RRIRGRPPRLPRPRPRPEHCPRP , its shrunken log2 fold change was 0.549

The sequence listed as RRIRERPPRLPRPRPRPGAIPRP shows shrunken log2 fold change equal to -0.187

Reported shrunken log2 fold change for RRIRVRPPRLPRPRPRPRVVPRP was 0.2

Value of shrunken log2 fold change reported for the sequence RRIRMRPPRLPRPRPRPPDKPRP is 1.03

Per the record, RRIRMRPPRLPRPRPRPLQNPRP has shrunken log2 fold change of 1.2

Query RRIRCRPPRLPRPRPRPTTAPRP yields shrunken log2 fold change of 0.166

Quick note, shrunken log2 fold change for RRIRWRPPRLPRPRPRPHCLPRP landed at 0.0644

sequence RRIRTRPPRLPRPRPRPSCWPRP , shrunken log2 fold change observed: 0.00851

So, RRIRFRPPRLPRPRPRPSSVPRP ? Its shrunken log2 fold change was -0.503

// RRIRVRPPRLPRPRPRPRLPPRP : shrunken log2 fold change value = 0.636

# shrunken log2 fold change (sequence: RRIRARPPRLPRPRPRPHMSPRP ) is -0.181

// sample RRIRHRPPRLPRPRPRPKPHPRP , its shrunken log2 fold change was 0.172

The sequence identified as RRIRWRPPRLPRPRPRPANYPRP registered its shrunken log2 fold change at -0.0848

// sample RRIRVRPPRLPRPRPRPMRWPRP , its shrunken log2 fold change was 0.0506

The sequence listed as RRIRCRPPRLPRPRPRPGHPPRP shows shrunken log2 fold change equal to 0.00689

Entry RRIRARPPRLPRPRPRPDKCPRP ; shrunken log2 fold change = -0.0816

Lab book: shrunken log2 fold change of RRIRRRPPRLPRPRPRPQCGPRP noted as 0.317

Recorded result, RRIRRRPPRLPRPRPRPYTAPRP , shrunken log2 fold change: -0.447

The measured shrunken log2 fold change associated with RRIRIRPPRLPRPRPRPFEYPRP reads -0.709

The sequence listed as RRIRMRPPRLPRPRPRPEMQPRP shows shrunken log2 fold change equal to 2.83

Entry RRIRFRPPRLPRPRPRPSWWPRP — recorded shrunken log2 fold change = 0.212

Please fill in: shrunken log2 fold change reported for RRIRLRPPRLPRPRPRPLWWPRP = 0.531

Data point: RRIRIRPPRLPRPRPRPPNNPRP ; shrunken log2 fold change = -0.637

shrunken log2 fold change recorded for this sequence, RRIRFRPPRLPRPRPRPDRCPRP , is -0.208

The measured shrunken log2 fold change associated with RRIRVRPPRLPRPRPRPRQFPRP reads 0.238

Measured shrunken log2 fold change of RRIRYRPPRLPRPRPRPVDQPRP : -0.611

Reported shrunken log2 fold change of RRIRIRPPRLPRPRPRPPYWPRP : -0.00803

shrunken log2 fold change reading for RRIRGRPPRLPRPRPRPGHQPRP : 0.124

Recorded shrunken log2 fold change (sequence RRIRSRPPRLPRPRPRPTDGPRP ): -0.115
